System: Sam68 (KHDRBS1)
Assay Notes: Sam68 small-molecule binders, primary screen, biochemical, small-molecule microarray, 635 nm fluorescence (AID 1125);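 note: score merges 667 nm channel intensity with signal to noise over triplicate slides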
Cond: small-molecule microarray binding, higher = more signal
Binary classification by composite z-score, with 0.9 as an inclusive lower bound for t; all other cases are f.

As a guide, the following entries are already answered.
{"columns": ["Compound", "Target Or Test System", "Label"],
 "data": [
  ["CC(C)C(=C=CC[C@@H](O)c1ccc(CO)o1)CCO", "Sam68 (KHDRBS1)", "f"],
  ["CCN(CC)c1ccc(N2CC=CC34O[C@@H]5C=CCOC(=O)[C@@H]5[C@H]3C(=O)N(C(CO)C(C)C)[C@@H]4C2=O)cc1 (stereo partly drawn)", "Sam68 (KHDRBS1)", "f"],
  ["C=C(CCCC)/C(=C/C[C@@H](OC(=O)c1ccncc1)c1ccc(OCCO)cc1)c1cnc2ccccc2c1", "Sam68 (KHDRBS1)", "t"],
  ["C=CC[C@@H](OC(=O)Nc1ccc(SC)cc1)c1ccc(OCCO)cc1", "Sam68 (KHDRBS1)", "f"],
  ["Cc1ccc(N2C(=O)c3ccccc3[C@](C)(C(=O)NC3CC3)[C@@H]2c2ccc(CO)cc2)nc1", "Sam68 (KHDRBS1)", "f"]
]}

Exam item: decide whether the reported composite z-score for C=CC[C@]1(C(=O)N(C)C)N=C(c2ccc(OCCCO)cc2)O[C@H]1c1ccccc1CN=[N+]=[N-] is at least 0.9.
t

Exam item: decide whether the reported composite z-score for C=C(/C(=C/C[C@H](OC(C)=O)c1cccc(OCCO)c1)c1cc(C(=O)OC)ccc1OC)C(C)C is at least 0.9.
f

====

Target Or Test System: Torsin-1A-interacting protein 1 (Homo sapiens) (UniProt Q5JTV8)
Sequence (Q5JTV8 whole entry, looked up): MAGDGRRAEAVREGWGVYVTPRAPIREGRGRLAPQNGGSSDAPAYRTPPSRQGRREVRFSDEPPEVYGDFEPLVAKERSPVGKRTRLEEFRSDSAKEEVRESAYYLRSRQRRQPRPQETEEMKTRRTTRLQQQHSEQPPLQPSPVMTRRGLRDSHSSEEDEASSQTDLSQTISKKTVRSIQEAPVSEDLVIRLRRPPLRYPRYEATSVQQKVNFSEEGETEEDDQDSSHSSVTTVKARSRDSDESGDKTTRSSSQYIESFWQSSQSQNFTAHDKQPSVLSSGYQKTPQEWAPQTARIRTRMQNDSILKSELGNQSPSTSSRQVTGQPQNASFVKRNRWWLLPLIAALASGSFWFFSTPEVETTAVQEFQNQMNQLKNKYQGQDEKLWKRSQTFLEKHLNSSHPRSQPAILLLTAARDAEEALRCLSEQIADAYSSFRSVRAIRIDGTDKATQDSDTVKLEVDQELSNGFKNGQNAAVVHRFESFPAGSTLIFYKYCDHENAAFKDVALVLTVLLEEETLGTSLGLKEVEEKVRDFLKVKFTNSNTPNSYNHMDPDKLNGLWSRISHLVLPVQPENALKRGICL
Assay Notes: LAP1 binders from COS7 cell lysate, primary screen, small-molecule microarray, 635/667 nm fluorescence (AID 1116)
Cond: COS7-hLAP1 lysate binding, 635 nm fluorescence, higher = more signal
Label class 1 when composite z-score >= 1; otherwise class 0.

Example cases with answers are listed next.
{"columns": ["Structure Smiles", "Label"],
 "data": [
  ["CC(C)N1C(=O)c2ccccc2[C@@H](C(=O)NCc2ccccc2)[C@@H]1c1ccc(CO)cc1", "class 0"],
  ["C=CCNC(=O)[C@H]1[C@@H]2C(=O)O[C@@H](c3ccccc3)[C@@H](c3ccccc3)N2[C@@H](c2ccc(OCCO)cc2)[C@]12C(=O)Nc1ccc(C#CCCO)cc12", "class 1"],
  ["CCOC(=O)C[C@H]1[C@H](OC(=O)Cc2ccc3c(c2)OCO3)[C@@H](NC(=O)c2ccc3ccccc3c2)c2cc(OCCCO)ccc2N1C(=O)c1ccc2ccccc2n1", "class 1"],
  ["CC(C)C(=C=CC[C@@H](O)c1ccc(CO)o1)CCO", "class 0"]
]}

Next up:
Reported composite z-score at or above 1? Cc1ccc(S[C@]2(C(=O)NCCN3CCOCC3)CC(=O)N(Cc3cc(C(F)(F)F)cc(C(F)(F)F)c3)[C@@H]2c2ccc(CO)cc2)cc1
class 0

====

Assay Notes: binders of probe aFSTL3 on microarray, primary screen, stem cell growth factor project, biochemical, small-molecule microarray, fluorescence 635/667 (AID 1064);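 note: measures binding of the biotinylated anti-FSTL3 antibody to printed compounds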
Cond: higher = more signal
Please provide measured composite z-score for the entries that follow.
Answers are plain numbers.

{"columns": ["Compound", "composite z-score"],
 "data": [
  ["CC(C)C(=C=CC[C@@H](O)c1ccc(CO)o1)CCO", -0.416],
  ["CCCNC(=O)[C@@]1(Sc2ccc(C)cc2)CC(=O)N(Cc2cc(C(F)(F)F)cc(C(F)(F)F)c2)[C@@H]1c1ccc(CO)cc1I", 0.71],
  ["C=CCC(OC(C)=O)[C@@H]1[C@@H](N(Cc2cc3ccccc3o2)C(=O)c2ccc(-c3ccccc3)cc2)c2cc(OCCCO)ccc2N1C(=O)c1ccc(-c2ccccc2)cc1 (some centres undefined)", 0.218],
  ["CO[C@H]1O[C@H](CO)[C@@H](OC(=O)Nc2ccccc2)[C@H](OC(=O)Nc2ccccc2-c2ccccc2)[C@H]1OC(=O)Nc1ccccc1-c1ccccc1", 0.183],
  ["COc1ccc(CCNC(=O)[C@@]2(Sc3ccc(C)cc3)CC(=O)N(Cc3ccccc3)[C@@H]2c2ccc(CO)cc2I)cc1", -1.07],
  ["COC(=O)c1c2oc(c1C(=O)OC)C(=O)N[C@@H](C(C)C)Cn1nncc1C1(CCCCC1)NC(=O)N[C@H](CO)CC2", -0.07],
  ["CC(C)C[C@@H]1NC(=O)[C@@]23C(=O)N[C@@H](Cc4ccccc4)C2[C@H](C)[C@@]2(C)O[C@H]2C3/C=C/CC/C=C/CNC(=O)[C@@H](C)NC1=O (some centres undefined)", -0.574],
  ["C=CCC1(CC=C)C[C@H]2CO[C@H](c3ccc(OC)cc3)N2C1=O", 0.79]
]}

List composite z-score for every entry below, keeping the order given.
1. C=CCC(OC(C)=O)[C@@H]1[C@@H](N(Cc2ccc(-c3cccc(C(F)(F)F)c3)o2)C(=O)c2ccc(-c3ccccc3)cc2)c2cc(OCCCO)ccc2N1C(=O)Cc1ccc(OC)cc1 (some centres undefined)
2. C=C(/C(=C/C[C@H](OC(C)=O)c1cccc(OCCO)c1)c1cc(C(=O)OC)ccc1OC)C(C)C
3. COc1ccc(C#Cc2ccc3c(c2)[C@]2(C(=O)N3)[C@H](c3ccc(O)cc3)N3[C@H](c4ccccc4)[C@H](c4ccccc4)OC(=O)[C@H]3[C@@H]2C(N)=O)cc1

0.365
0.037
0.573

Give one value of composite z-score per listed compound.
1. O=c1n(-c2ccccc2)c(=O)n2n1CC(COc1ccccc1)=C1[C@@H](CCc3ccccc3)OB(O)C[C@@H]12
2. Cc1ccc(S[C@]2(C(=O)NCC(C)C)CC(=O)N(C(C)C)[C@@H]2c2ccc(CO)cc2)cc1
3. COCCCNC(=O)[C@@]1(C)c2ccccc2C(=O)N(Cc2cc(F)cc(C(F)(F)F)c2)[C@H]1c1ccc(CO)cc1

1: -0.62; 2: -1.02; 3: 1.57

====

Assay Notes: E. coli acrAB mutant growth effects, primary screen, E. coli filamentation inducers, strain DRC39, OD650, 24 h (AID 1178);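 note: growth measured as culture turbidity by optical density at 650 nm; test concentration not given here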
Cond: higher = more signal, called active from +8 up or from −8 down
Exercise: state measured z-score for each of the molecules provided.
Answers are plain numbers.

{"columns": ["Structure Smiles", "z-score"],
 "data": [
  ["COC(=O)[C@@]1(CCC(=O)OC(C)(C)C)COC(c2ccc(OCCCO)cc2)=N1", 2.83],
  ["CC(C)C[C@@H]1NC(=O)[C@H]2C[C@@H](C(=O)NCCCC[N+](C)(C)C)[C@@H](c3cccc(OCCO)c3)N2C1=O", 0.709],
  ["COc1ccc([Si](C)(C)[C@@H]2[C@@H](CCn3cc(CCO)nn3)O[C@]3(C(=O)N(Cc4ccc(N5C(=O)c6cccc7cccc5c67)cc4)c4ccccc43)[C@H]2C)cc1", 2.2],
  ["COCCCNC(=O)[C@@]1(CCS(=O)(=O)c2ccccc2)N=C(c2ccc(OCCCO)cc2)O[C@H]1c1ccccc1CN=[N+]=[N-]", 1.4]
]}

Batch: z-score for all items listed.
1. C=C(COC)C(=O)CC[C@@H](OC(=O)c1ccccc1-c1ccccc1C(=O)O)c1cccc(OCCO)c1
2. COC(=O)C(CC#Cc1ccc2c(c1)[C@]1(C(=O)N2)[C@H](C(=O)O)[C@H]2C(=O)O[C@H](c3ccccc3)[C@H](c3ccccc3)N2[C@@H]1c1ccc(OCCO)cc1)C(=O)OC
3. CCCCCCC#C[Si](O[C@H](c1ccccc1)c1cn(Cc2ccccc2)nn1)(C(C)C)C(C)C

1.16
1.6
2.12

====

Tested on: PRMT1 (protein arginine N-methyltransferase 1)
Assay Notes: PRMT1 binders on small-molecule microarrays, primary screen, biochemical, small-molecule microarray, 635 nm fluorescence (AID 1088);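 note: binding of Prmt1 protein to compounds spotted on small-molecule microarray slides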
Cond: small-molecule microarray binding, higher = more signal
Classification field: class 1 = composite z-score at or over 0.5; class 0 = composite z-score under 0.5.

{"columns": ["Molecule", "Label"],
 "data": [
  ["C=CCC(OC(C)=O)[C@@H]1[C@@H](N(Cc2cccc3ccccc23)C(=O)c2cccc3ccccc23)c2cc(OCCCO)ccc2N1C(=O)Cc1ccc(OC)cc1 (stereo partly drawn)", "class 0"],
  ["C=CCNC(=O)[C@@H]1[C@H]2C(=O)O[C@H](c3ccccc3)[C@H](c3ccccc3)N2[C@H](c2ccc(O)cc2)[C@@]12C(=O)Nc1ccc(C#Cc3ccc(OC)cc3)cc12", "class 1"],
  ["C#CCN1C(C(=O)OCC)OC[C@H]1c1ccccc1 (stereo partly drawn)", "class 1"],
  ["C=CC[C@]1(C(=O)N2CCCCC2)COC(c2ccc(OCCCO)cc2)=N1", "class 1"],
  ["C=C(CCCC)/C(=C/C[C@@H](OC(=O)c1ccncc1)c1ccc(OCCO)cc1)c1cnc2ccccc2c1", "class 1"],
  ["C=C1C=C(Br)C2(OCCCO2)[C@H]2OC12 (stereo partly drawn)", "class 0"],
  ["O=C1O[C@H](c2ccccc2)[C@H](c2ccccc2)N2[C@H]1[C@@H](C(=O)Nc1nc3ccccc3s1)[C@]1(C(=O)Nc3ccc(C#CCCO)cc31)[C@H]2c1ccccc1OCCO", "class 1"]
]}

Then there is this molecule:
// inclusive: composite z-score at least 0.5? input: COc1ccc(CCNC(=O)[C@@]2(Sc3ccc(C)cc3)CC(=O)N(Cc3ccccc3)[C@@H]2c2ccc(CO)cc2I)cc1
class 0
